Tested On: smooth muscle angiotensin II receptor
Protocol Description: Assay A: Angiotensin II Binding Activity (125I-angiotensin II displacement, rat uterine membrane preparation)
Condition Label: 50% displacement of specifically bound 125I-AII, rat uterine membranes, 25° C., 60 min
Parameter: pIC50
In simple prose, pIC50 is minus the logarithm base ten of a concentration in moles per litre.

The cases that follow already have their pIC50 on record.
>>> result_value("CCCCc1cn(-c2ccccc2C)c(=O)n1Cc1ccc(-c2ccccc2-c2nnn[nH]2)nc1")
8.03
>>> result_value("CCCCn1cc(C2CCCCC2)n(Cc2ccc(-c3ccccc3-c3nnn[nH]3)nc2)c1=O")
7.09
>>> result_value("CCCCc1cn(CC(C)C)c(=O)n1Cc1ccc(-c2ccccc2-c2nnn[nH]2)nc1")
7.85

Task: Field request: pIC50 | item: CCCCc1cn(-c2c(Cl)cccc2Cl)c(=O)n1Cc1ccc(-c2ccccc2-c2nnn[nH]2)nc1
Result: 8.32
